molecular target: human CDH6 with EC3 removed, on HEK293T cells (HEK293T-hCDH6-EC3 deletion) (human) (UniProt P55285); assay: FACS, HEK293T-hCDH6-EC3 deletion cells
Recorded Endpoint: Max MFI (MFI)
Express your answer in MFI, writing the number without its unit.

Binder	Max MFI, MFI
CHI-CDH6-5 (antibody, human IgG1, kappa, V domains shown) VH: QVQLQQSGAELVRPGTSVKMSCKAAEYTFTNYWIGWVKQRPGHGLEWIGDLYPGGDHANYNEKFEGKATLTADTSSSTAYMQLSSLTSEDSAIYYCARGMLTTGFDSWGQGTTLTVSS VL: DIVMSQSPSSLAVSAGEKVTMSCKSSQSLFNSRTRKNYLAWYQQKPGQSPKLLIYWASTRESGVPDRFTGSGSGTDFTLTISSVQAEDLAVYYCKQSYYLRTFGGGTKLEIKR	12200

Entry CHI-CDH6-7 (antibody, human IgG1, kappa, V domains shown) VH: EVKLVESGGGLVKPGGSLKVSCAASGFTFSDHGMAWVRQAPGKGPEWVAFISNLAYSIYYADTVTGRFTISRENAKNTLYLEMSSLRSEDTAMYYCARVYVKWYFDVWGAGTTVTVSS VL: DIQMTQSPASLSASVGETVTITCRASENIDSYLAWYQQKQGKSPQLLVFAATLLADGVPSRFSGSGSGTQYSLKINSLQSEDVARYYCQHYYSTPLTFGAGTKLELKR : reported Max MFI = ?
9060

Which Max MFI is listed for CHI-CDH6-14 (antibody, human IgG1, kappa, V domains shown, also called CHI- hCDH6-14) VH: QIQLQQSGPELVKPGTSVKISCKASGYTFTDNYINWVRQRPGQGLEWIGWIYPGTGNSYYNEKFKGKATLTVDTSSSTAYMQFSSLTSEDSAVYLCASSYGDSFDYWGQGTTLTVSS VL: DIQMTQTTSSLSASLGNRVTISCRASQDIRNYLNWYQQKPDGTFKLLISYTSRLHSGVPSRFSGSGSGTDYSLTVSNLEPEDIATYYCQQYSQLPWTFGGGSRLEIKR ?
755
